# assay: basal RPMI8226 viability, no added stimulus, profiling panel, cell-based, calcein-AM fluorescence, 48 h, PK04 Diversity Set (AID 1166);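 also: cells grown under basal conditions without added stimulus; test concentration not given here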
# conditions: RPMI8226 myeloma viability, higher = more signal
Assign a class from recorded z-score; defined classes: low band: < -1; middle band: ≥ -1 and < 0.05; high band: ≥ 0.05

For orientation, consider the following solved cases.
compound	assigned-class
CN(C)CCCNC(=O)[C@@]1(c2ccc([N+](=O)[O-])cc2)CC(=O)N(C2CCCCC2)[C@@H]1c1ccc(CO)cc1	low band
CC(C)(C)OC(=O)CC[C@@]1(C(=O)NCC(O)CO)N=C(c2ccc(OCCCO)cc2)O[C@@H]1c1ccccc1N=[N+]=[N-] (stereo not given in full)	high band
COc1cc(CO)cc(I)c1O[C@H]1C=C(C(=O)NCCO)C[C@@H](N(CCN2CCOCC2)C(=O)C2CCOC2)[C@@H]1O (stereo not given in full)	high band
CC(C)OC(=O)C=C1C[C@@H](c2ccccc2C(F)(F)F)O[C@@H](c2ccccc2C(F)(F)F)O1	high band
COCCOC(=O)N1C(=O)[C@@]2(c3cc(C#CC4=CCCCC4)ccc31)[C@H](C(=O)Nc1nc3ccccc3s1)[C@H]1C(=O)O[C@H](c3ccccc3)[C@H](c3ccccc3)N1[C@@H]2c1ccc(OCCO)cc1	middle band

Prompt line: Which bin, given its z-score, does Cc1ccc(S[C@]2(C(=O)NCC(F)(F)F)CC(=O)N(C(C)C)[C@@H]2c2ccc(CO)cc2I)cc1 occupy?
Response line: low band

Prompt line: Which bin, given its z-score, does CC(=O)NCCCC[C@@H]1NC(=O)[C@@H]2C[C@H](C(=O)NCCCCCCNC(=O)CS)[C@H](c3cccc(OCCO)c3)N2C1=O occupy?
Response line: high band

----------
# target-system: NADPH oxidase 4 (Homo sapiens) (UniProt Q9NPH5)
# Sequence (Q9NPH5 whole entry, looked up): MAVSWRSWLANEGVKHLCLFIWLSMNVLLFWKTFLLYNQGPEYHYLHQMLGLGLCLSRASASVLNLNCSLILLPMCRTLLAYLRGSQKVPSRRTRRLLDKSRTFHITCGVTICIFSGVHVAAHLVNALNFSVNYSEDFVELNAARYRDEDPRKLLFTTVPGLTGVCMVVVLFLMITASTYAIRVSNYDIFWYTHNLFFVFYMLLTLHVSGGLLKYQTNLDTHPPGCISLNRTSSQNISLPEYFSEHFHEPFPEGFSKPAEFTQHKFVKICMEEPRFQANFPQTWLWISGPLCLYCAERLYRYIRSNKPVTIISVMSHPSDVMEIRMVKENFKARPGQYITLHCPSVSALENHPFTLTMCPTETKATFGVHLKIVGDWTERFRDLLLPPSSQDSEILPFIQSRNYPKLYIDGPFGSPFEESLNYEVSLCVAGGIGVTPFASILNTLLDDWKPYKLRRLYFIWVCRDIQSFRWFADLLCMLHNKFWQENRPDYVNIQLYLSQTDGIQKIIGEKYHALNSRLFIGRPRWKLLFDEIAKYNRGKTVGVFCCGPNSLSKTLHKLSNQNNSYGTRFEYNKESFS
# assay: NOX4-dependent H2O2 signal modulators, primary screen, NOX inhibitor project, cell-based, HEK293-NOX4, tetracycline-induced, Amplex Red fluorescence (AID 1160)
# conditions: 45 min, higher = more signal, called active from +8 up or from −8 down
property-measured: z-score
Please give the numeric answer without any surrounding text.

The cases that follow already have their z-score on record.
compound	measurement
COc1ccc(C(O)C2C=CC3C(=O)N(C)C(=O)C3N2N2CCCCC2)c2ccccc12 (stereo not given)	-1.72
C=CCNC(=O)[C@H]1[C@@H]2C(=O)O[C@@H](c3ccccc3)[C@@H](c3ccccc3)N2[C@@H](c2ccc(OCCO)cc2)[C@]12C(=O)Nc1ccc(C#CC3=CCCCC3)cc12	-1.05
CCOC(=O)C1=CCC(c2ccccc2)N(S(=O)(=O)CC[Si](C)(C)C)C1 (stereo not given)	0.976
COc1cc2c(cc1OC)CN(C(=O)[C@H]1[C@@H]3C(=O)O[C@@H](c4ccccc4)[C@@H](c4ccccc4)N3[C@@H](c3ccc(O)cc3)[C@]13C(=O)Nc1ccc(C#CCNC(N)=O)cc13)CC2	0.732
CCOC(=O)C[C@H]1[C@H](OC(=O)Cc2ccc3c(c2)OCO3)[C@@H](NC(=O)c2ccc3ccccc3c2)c2cc(OCCCO)ccc2N1C(=O)c1ccccc1	0.321
O=C1NC(=O)C2C1C=CC(C(O)c1ccccc1)N2Nc1ccc(Cl)cc1Cl (stereo not given)	-4.94
COc1ccc(C(=O)Nc2ccc(CN3C(=O)[C@@]4(O[C@@H](CCO)[C@H]([Si](C)(C)c5ccc(OC)cc5)[C@H]4C)c4ccccc43)cc2)cc1	-2.48
O=C1C2C=CC(C(O)C(c3ccccc3)c3ccccc3)N(n3cnnc3)C2C(=O)N1Cc1ccccc1 (stereo not given)	-2.83
CN(C)CCCNC(=O)[C@@]1(c2ccc([N+](=O)[O-])cc2)CC(=O)N(C2CCCCC2)[C@@H]1c1ccc(CO)cc1	1.31
O=C1O[C@H](c2ccccc2)[C@H](c2ccccc2)N2[C@H]1[C@@H](C(=O)Nc1nc3ccccc3s1)[C@]1(C(=O)Nc3ccc(C#CC4(O)CCCCCC4)cc31)[C@H]2c1ccc(OCCO)cc1	0.11

Prompt line: State the recorded z-score for this entry: CC1CC/C=C\[C@H]2OC34C=CCN(Cn5nnc6ccccc65)C(=O)[C@H]3N(C(CO)C(C)C)C(=O)[C@@H]4C2C(=O)O1 (stereo not given in full)
Response line: 0.134

Prompt line: State the recorded z-score for this entry: CC(C)(C)OC(=O)CC[C@]12N=C(c3ccc(OCCCO)cc3)O[C@H]1c1ccccc1N(CCS(=O)(=O)c1ccccc1)C2=O
Response line: 1.12

Prompt line: State the recorded z-score for this entry: C=CC[C@]12N=C(c3ccc(OCCCO)cc3)O[C@H]1c1ccccc1N(Cc1ccccc1)C2=O
Response line: 0.393

Prompt line: State the recorded z-score for this entry: CC(=O)NCCCC[C@@H]1NC(=O)[C@@H]2C[C@H](C(=O)NCCCCN(C)C)[C@H](c3cccc(OCCO)c3)N2C1=O
Response line: -0.115

Prompt line: State the recorded z-score for this entry: C[N+](C)(C)CCCCNC(=O)[C@H]1C[C@H]2C(=O)N[C@@H](Cc3ccccc3)C(=O)N2[C@H]1c1ccc(O)cc1
Response line: -1.27

----------
# assay: osmotic lysis modulators in infected erythrocytes, primary screen, PSAC antagonist project, cell-based, P. falciparum Indochina, OD700, 3 h (AID 1156)
# conditions: higher = more signal, called active from +8 up or from −8 down
Assign a class from recorded z-score; defined classes: category 1 = under 0.6, category 2 = from 0.6 up to 2, category 3 = 2 and over

molecule	assigned-class
COC(=O)[C@@]1(Cc2ccc(F)cc2)[C@H]2c3cc(C(=O)N(C)C)n(Cc4nc5ccccc5[nH]4)c3C[C@H]2CN1C(=O)c1ccccc1	category 2
COc1ccc(C(=O)Nc2cccc(CN3C(=O)[C@]4(O[C@H](CCO)[C@@H]([Si](C)(C)c5ccc(OC)cc5)[C@@H]4C)c4ccccc43)c2)cc1	category 1
CN1C(=O)C2C=CC(C(O)c3cc(C(F)(F)F)cc(C(F)(F)F)c3)N(N3CCCCC3)C2C1=O (configuration not stated)	category 2
C=CCOC(=O)[C@@H]1[C@H]2C(=O)O[C@H](c3ccccc3)[C@H](c3ccccc3)N2[C@H](c2ccc(OCCOC(=O)[C@@H]3C[C@@H]4C(=O)N5CCC[C@H]5C(=O)N4[C@@H]3c3ccc(O)cc3)cc2)[C@@]12C(=O)Nc1ccc(I)cc12	category 3

Now for another entry.
Prompt line: Which bin, given its z-score, does CC(=O)N1Cc2ccccc2C[C@@]2(COC(c3ccc(OCCCO)cc3)=N2)C1=O occupy?
Response line: category 3

----------
# assay: MM1S myeloma cell viability, profiling panel, resazurin fluorescence, basal, 24 h, PK04 Diversity Set (AID 1174);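 also: MM1S multiple myeloma cell line; test concentration not given here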
# conditions: higher = more signal, called active from +8 up or from −8 down
Cut-off -0.3 on z-score, inclusive. At or above means true (1); below means false (0).

compound	assigned-class
C[N+](C)(C)CCCCNC(=O)[C@H]1C[C@H]2C(=O)N[C@@H](Cc3ccccc3)C(=O)N2[C@H]1c1ccc(O)cc1	true (1)
COCCCNC(=O)C1N=C(c2ccc(OCCCO)cc2)N(c2ccccc2)O1 (centres undefined)	false (0)
O=C1O[C@H](c2ccccc2)[C@H](c2ccccc2)N2[C@H]1[C@@H](C(=O)Nc1nc3ccccc3s1)[C@]1(C(=O)Nc3ccc(C#CC4(O)CCCCCC4)cc31)[C@H]2c1ccc(OCCO)cc1	false (0)

Prompt line: API: above_or_equal(metric=z-score, cutoff=-0.3) for item CC(C)c1ccc(NN2C(C(O)C(c3ccccc3)c3ccccc3)C=CC3C(=O)N(c4ccccc4)C(=O)C32)cc1 (centres undefined)
Response line: false (0)

Prompt line: API: above_or_equal(metric=z-score, cutoff=-0.3) for item CN1C(=O)C2C=CC(C(O)C3=C[C@H]4C[C@@H](C3)C4(C)C)N(Nc3ccccc3)C2C1=O (some centres undefined)
Response line: false (0)

Prompt line: API: above_or_equal(metric=z-score, cutoff=-0.3) for item CCOC(=O)C[C@H]1[C@H](OC(=O)c2ccc(C(=O)c3ccccc3)cc2)[C@@H](NC(=O)c2ccc(-c3ccccc3)cc2)c2cc(OCCCO)ccc2N1C(=O)c1ccccc1
Response line: true (1)

Prompt line: API: above_or_equal(metric=z-score, cutoff=-0.3) for item COC(=O)C=C(CC(O)c1cccc(Cl)c1)OC (centres undefined)
Response line: true (1)

Prompt line: API: above_or_equal(metric=z-score, cutoff=-0.3) for item COc1cc2c(cc1O)C(C1CC1)N(Cc1cc3c(cc1Br)OCO3)CC2 (centres undefined)
Response line: false (0)

Prompt line: API: above_or_equal(metric=z-score, cutoff=-0.3) for item COC(=O)[C@@]1(Cc2ccc(F)cc2)[C@H]2c3cc(C(=O)N(C)C)n(CC4CC4)c3C[C@H]2CN1C(=O)c1ccccc1
Response line: false (0)

----------
composite z-score by entry:
# target-system: Follistatin-related protein 3 (Homo sapiens)
# assay: FSTL3 binders on small-molecule microarrays, primary screen, biochemical, small-molecule microarray, 635 nm fluorescence (AID 1105);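 also: score merges emission near 667 nm and signal to noise per printed spot across three slides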
# conditions: FSTL3 binding, higher = more signal
Please give the numeric answer without any surrounding text.

The cases that follow already have their composite z-score on record.
>>> print(df.to_string())
                                   compound  measurement
0  Cc1ccc(S[C@]2(C(=O)NC3CC3)CC(=O)N(C3Cc4ccccc4C3)[C@@H]2c2ccc(CO)cc2)cc1       -0.809
1  O=C1OCCC/C=C\[C@H]2OC34C=CCN(Cc5ccccc5)C(=O)[C@H]3N(CCCCCCO)C(=O)[C@@H]4C12 (stereo partly specified)        -1.27
2  C=CC[C@@]1(C(N)=O)N=C(c2ccc(OCCCO)cc2)O[C@@H]1c1ccccc1CN=[N+]=[N-]        0.267

Prompt line: Request - read-out composite z-score | tested on Follistatin-related protein 3 (Homo sapiens) | compound CCN(CC)c1ccc(N2CC=CC34O[C@@H]5/C=C\CCC(C)OC(=O)C5[C@H]3C(=O)N(C(CO)C(C)C)[C@@H]4C2=O)cc1 (stereo partly specified)
Response line: -1.1

Prompt line: Request - read-out composite z-score | tested on Follistatin-related protein 3 (Homo sapiens) | compound O=C1c2ccccc2[C@@]2(Cc3ccccc3N(CCN3CCOCC3)C2=O)[C@H](c2ccc(CO)cc2)N1Cc1ccccc1
Response line: -0.267

Prompt line: Request - read-out composite z-score | tested on Follistatin-related protein 3 (Homo sapiens) | compound COc1ccc(CCNC(=O)[C@@H]2c3ccccc3C(=O)N(C3Cc4ccccc4C3)[C@H]2c2ccc(CO)cc2)cc1
Response line: 0.0595
